# Tested on: MS2 coat protein
# PROTOCOL TEXT: apparent KD of MS2 coat protein; designed switch direction (-1 OFF switch, 1 ON switch): -1; higher = weaker reporter binding
# CONDITION DESCRIPTION: input ligand: FMN 200 uM
This listing pairs sequences with measured apparent KD of MS2 coat protein.
PROPERTY: apparent KD of MS2 coat protein (nM)

{"SEQ STRING": "AAGAAUCAAGGAUAUGCAUGAUACGACAUGAGGAUCACCCAUGUCCUCACGCGUAUCCUUGCAGAAGGUGAGUAUA [EX5 A.22] (Eterna round: R97, puzzle: Exclusion 5)", "PROPERTY": "apparent KD of MS2 coat protein", "TEST RESULT": 15}
{"SEQ STRING": "UACACCACAUGAGGAUCAAACAUGAGGAUCACCCAUGUAUAGCAAGCUUUUUGCUCGUCUUAUAAAUAUGUGGUGUA [Electric Eye 6 - Jieux - Sensor, turn-off variant 1] (Eterna round: R97, puzzle: Sensor, turn-off variant 1)", "PROPERTY": "apparent KD of MS2 coat protein", "TEST RESULT": 14.9}

====

This listing pairs sequences with measured apparent KD of MS2 coat protein.
# System: MS2 coat protein
# PROTOCOL TEXT: apparent KD of MS2 coat protein; designed switch direction (-1 OFF switch, 1 ON switch): -1; higher = weaker reporter binding
# CONDITION DESCRIPTION: input ligand: microRNA oligo, concentration not stated
PROPERTY: apparent KD of MS2 coat protein (µM)

{"SEQ STRING": "UUGUUAUAUGUAGGAUAUGCGUAUUAUUAUUAUGCAGAAGGACAUGAGGAUCACCCAUGUAUAUUAUUAUUAUAUAUUAUAUAU [Title] (Eterna round: R96, puzzle: Exclusion NG 1)", "PROPERTY": "apparent KD of MS2 coat protein", "TEST RESULT": 0.0219}
{"SEQ STRING": "CAUGUCCAACGAGGAUAUGGGACAGGAGGUGUACCAGAAGGCGUACGGACAUGAGGAUCACCCAUGUCGCGCGGUGCGAUGUGG [15th something] (Eterna round: R96, puzzle: Exclusion NG 1)", "PROPERTY": "apparent KD of MS2 coat protein", "TEST RESULT": 0.0398}
{"SEQ STRING": "ACAUGAGGAUCACCCAUGUAAUCAUGAUGGCUGAUGUAGAGUCAGGAUAUGUGUGGCUUUCUAUCGCAGAAGGGACAAGACUGG [Deportation 35 - Jieux - Exclusion NG 3] (Eterna round: R96, puzzle: Exclusion NG 3)", "PROPERTY": "apparent KD of MS2 coat protein", "TEST RESULT": 0.0377}
{"SEQ STRING": "UCACGGGAUUGAGGAUAUAUAUUAAUUUUUUUUAUAGAAGGCAAAUUGUUAGAUUAUUCACUAUACAUGAGGAUCACCCAUGUU [JR_ExcBG1_Sub077] (Eterna round: R96, puzzle: Exclusion NG 1)", "PROPERTY": "apparent KD of MS2 coat protein", "TEST RESULT": 0.0199}
{"SEQ STRING": "UAUUAGCAAGCGAGAUCCCACAUGAGGAUCACCCAUGUGCUCGUCUUAUAAGGUACUGUGACGAAAGUCACGGUACC [Sensor 3, v1 - 91] (Eterna round: R96, puzzle: Sensor v3, turn-off variant 1)", "PROPERTY": "apparent KD of MS2 coat protein", "TEST RESULT": 0.298}

====

This listing pairs sequences with measured apparent KD of MS2 coat protein.
# Tested on: MS2 coat protein
# PROTOCOL TEXT: apparent KD of MS2 coat protein; designed switch direction (-1 OFF switch, 1 ON switch): 1; higher = weaker reporter binding
# CONDITION DESCRIPTION: Eterna round: R98; input ligand: FMN 200 uM
PROPERTY: apparent KD of MS2 coat protein (nM)

{"SEQ STRING": "GCCAACUUAUGAGGAUAUGGCACCUUAUUGGUGCCAGAAGGCAUGUCAAUUGACAUGAGGAUCACCCAUGUAUUAUAGUUGGCA [Fiskers NG1ss - 20 m2]", "TEST RESULT": 112}
{"SEQ STRING": "GCAAAUGGGCGAGGAUAUGGGACGGGCCUAAACAGGGCACAUGAGGAUCACCCAUGUCACACGACCCAGAAGGCGCUAAGAACG [Bemave]", "TEST RESULT": 144}
{"SEQ STRING": "GGAUCGCUUGGAGGAUAUCCAACUAUCCUAGUUGGAGAAGGCCAAGCUACAGAGCUAAGCUUGGAAGUCACUUCGGAUCCACAC [pwkr ssNG1 F9.4.4]", "TEST RESULT": 39.2}
{"SEQ STRING": "GCCAUCGUAUGAGGAUAUGGCACCGAAACGGUGCCAGAAGGCAUGUCAAUAGACAUGAGGAUCACCCAUGUAUUAUCGAUGGCA [MatMod 1 - Jieux - Same State NG 1]", "TEST RESULT": 46.9}
{"SEQ STRING": "UCACUCACGUCAGGAUAUGGAUCGGAAAACGAUCCAGAAGGGACCUGCAAACUUGAGGAUCACCCAGGUUCCAAUAACGAGUGA [SameSame 12 - Jieux - Same State NG 1]", "TEST RESULT": 194}
{"SEQ STRING": "UCCGCUAUCGCAGGAUAUUACAUGGGAAAGAAUACAUGAGGAUCACCCAUGUAAAAGAUCAUAAAUAAGAAGGGCGAUAGCGGA [Lame State 8 - Jieux - Same State NG 2]", "TEST RESULT": 123}
{"SEQ STRING": "GGUUGACGACAAUUACAUGAGGAUCACCCAUGUUGUGGGAUGCAGGAUAUGUGGUAUAUUAAUUAACAGAAGGGCAAUAAUUUU [JR_SSNG3_Sub062]", "TEST RESULT": 51}
{"SEQ STRING": "AUAAUAACUUGAGGAUAUCGAGUGGAAUACACUCGAGAAGGCAGGGAAACCUGAGGAUCACCCAGGUAAAUAAUAAUAAUAAUA [Same State NG1 - A3C, U17G Submission 1C]", "TEST RESULT": 22.7}
{"SEQ STRING": "GCUGUCGCGUGAGGAUAUGGUCGGCAGUGCUGACCAGAAGGCAUGUCGAUAGACAUGAGGAUCACCCAUGUGGUUAGGGCGGCU [salish99_SSNG1_R02_015]", "TEST RESULT": 464}
{"SEQ STRING": "UUCAAAGGGUGAGGAUAUGCACAGGAUCACCGUGUAGAAGGCAUCAGGUAGAAGGUGCAGAGGAUCACCCUGUAAGGAUAUAUC [pwkr2 ssNG1 DX.15]", "TEST RESULT": 719}
{"SEQ STRING": "CGAGACACUUGAGGAUAUGCUCAGGAAUACUGAGCAGAAGGCAGGGAAACCUGAGGAUCACCCAGGUAACUGGAAAGUCUCGAA [Same State NG1 - A3C, U17G Submission 5A]", "TEST RESULT": 19}

====

# System: MS2 coat protein
# PROTOCOL TEXT: apparent KD of MS2 coat protein; designed switch direction (-1 OFF switch, 1 ON switch): -1; higher = weaker reporter binding
# CONDITION DESCRIPTION: input ligand: none
Label scheme for apparent KD of MS2 coat protein: lower than 20 nM is F, 20 nM and above is T.

{"SEQ STRING": "CCAGUACGAGGAUAUACAUGAGGAUCACCCAUGUAAAUUGCCACGUCUUGGACGUCAUGUAGAAGGCGUUGGAA [EX3 C.1] (Eterna round: R97, puzzle: Exclusion 3)", "CATEGORY": "F"}
{"SEQ STRING": "ACAUGUUGCGCAGGAUAUGGGACACAUGAGGAUCACCCAUGUGGUUACAUGUCUUACCAAGCGUCCCAGAAGGGCGUGAACAUG [Ex NG2 #31] (Eterna round: R96, puzzle: Exclusion NG 2)", "CATEGORY": "T"}
{"SEQ STRING": "CCUCUACAUGAGGAUCACCCAUGUGAGGAUAUGUUGACGAGCCUGAAAAGGCUGGUCAACAGAAGGCAUAUGUA [Exclusion 1 (Mod 2 solution 16 by Eternabot)] (Eterna round: R97, puzzle: Exclusion 1)", "CATEGORY": "F"}
{"SEQ STRING": "AUGCGUGGCUAGGAUAUCGAGGAAUUUAGCCAGCGAGAAGGAGCCACAUGAGGAUCACCCAUGUGGUGAACCUU [jl-ex6-4.64 ViennaUCT mod] (Eterna round: R97, puzzle: Exclusion 6)", "CATEGORY": "F"}
{"SEQ STRING": "CCAGAGAGCGAAGGAUAUUCUGUUCAAUGGGUCGACCUAGACAUGAGGAUCACCCAUGUCGCCCGGGAGAAGGUCGCAAGGAUC [Eternabot solution 18] (Eterna round: R96, puzzle: Exclusion NG 2)", "CATEGORY": "F"}
{"SEQ STRING": "CGACGUGGAGUGAGGAUAUCGUGUUCGAAAGAACGUGAGAAGGCACAUGAGGAUCACCCAUGUGAUUCACGUCG [Omei Ex4B A5] (Eterna round: R97, puzzle: Brourd's mod of Exclusion 4)", "CATEGORY": "T"}
{"SEQ STRING": "GAGAACUGAGGAUAUACAUGAGGAUCACCCAUGUUAAGAAGAAAGUAUAAAAGAUUAUGUAGAAGGCAGAGAGA [JR_Ex3_Sub068] (Eterna round: R97, puzzle: Exclusion 3)", "CATEGORY": "T"}
{"SEQ STRING": "CUUGUGUGAGGAUAUGCGUAGGCAGUAAGUAAGUAGCCGGAGCAGAAGGCACAUGAGGAUCACCCAUGUGUUAC [EX4 B.1] (Eterna round: R97, puzzle: Exclusion 4)", "CATEGORY": "T"}
{"SEQ STRING": "AUUGCGCGAGGAUAUACGAGAGACCUGUGUCAGAACCAUGGACAUGAGGAUCACCCAUGUAGAAGGCGUGCUCU [Eternabot (L1) Solution 73] (Eterna round: R97, puzzle: Exclusion 2)", "CATEGORY": "T"}
{"SEQ STRING": "GUAUGUUCCUGAGGAUAUCGAGCCAUCGACCGCCGAGAAGGCAGAGACAUGAGGAUCACCCAUGUGAAGUAAUGGCGAUGAGAA [Eternabot solution 13] (Eterna round: R96, puzzle: Exclusion NG 1)", "CATEGORY": "F"}
